# Substrate: BHET
# particulars: 120 h
metric_name: plate clearing

protein	metric_name	assay_value
unnamed (protein) MKITAHKTARGVANFAKASLFVAALAVTSLANAQYQKGPDPTVSALERNGSFATRSTTVSRLSASGFGGGTIYYPTASGSYGAIAVSPGFTAYQSSISWIGERLSSHGFVVITIDTITTSDQPESRGNQLKAALDKVVSLSRTSSSPLYNKVDASRLGVAGHSMGGGGTLAAARDNPSYKAAVPLAPWHTTKSWSRVSVPTLIIGGSTDAIAGVALHSIPFYTSLPSSTKKAYMELSGEGHFYPQLPSNYPIVGRYMISWFKRFMDSDTRYSPFLCGAQHQADLRLFGPFSDYRENCPY	plate clearing	not clears the plate
unnamed (protein) MVVIRTTNTTPTLQVTLMTTISVRKSALFVFAATAVLFSMSAFSFNPPTEPEPDPGPSPCQTDCGFTRGPNPTASYLEASTGPYAVRTTDVSRYVSGFGGGTIHYPAGTTGEMGAIAIVPGFFASESSIQWWGPRLASHGFVVITISTNSVFDQPGSRSAQLENALDYVISQSNSPTSGILGMVDSSRVGAMGWSMGGGGTLRLASSERLSAAIPLAPWNTGSNNFDQIDTPTLIFACENDGTAPVSQHASPFYNRIPGATAKAYFEINNGQHSCANGGGSNGGLLGKYGVSWMKLHIDKDDRYNRFLCGPNHAANSAISEYRGTCPY	plate clearing	not clears the plate
unnamed (protein) MKSFVKMCVGCVLALVMLAGISSADYRRGPNPSDSMLEARTGPFDFERSTVSRLSAGGYGGGTLFYPTNTNEGPFAGIVVCPGYMESDGQVDWWGPRLASNGFVVFVMQPQNTYMNQPSQRGNQMLDALDDLVSWNNSRNHAIYGLLDPNRLGLMGHSMGGGGTLIAAEDEANNPAVKAAIPLAPYALEKDFSRITCPTMIVACGADMIAPVAQHAMPFYRSLSDSIDKMFIEFAGDSHFCVIDGNMHMPTLGKLGIAWMKVFMDEDARYLTFLNDTNYGATMEVSRFQSNRPYSVPGGGTSGDCQQWTSSNDQHVSAGRAYTQQETVGCDTVTTYYAVGSNMSIGTSGYSSTTLHSSDGGNSYYTGSCP	plate clearing	not clears the plate
